ASSAY_COMMENT: Human HepG2 cell viability assay in 384 well format
Format: toxicity, cell-based
Parameters: dose 125 nL, time 70.5 hour; concentration not given beside the values
CONDITION_DESCRIPTION: HepG2 cells, read-out: Inhibition
QUANTITY_KIND: cytotoxicity at 70.5 h (%)

[[record]]
compound = "Cc1ncc2c(c1C(=O)O)CCN(c1ncc(F)cn1)C2"
meas_value = -0.54

[[record]]
compound = "Cc1cc(Nc2cnccn2)cc(C2CCCNC2)n1 (stereo unspecified)"
meas_value = -2.88

[[record]]
compound = "O=c1[nH]c(-c2ccccn2)nc2c1CCN(Cc1cccc(O)c1)C2"
meas_value = -4.95

[[record]]
compound = "Cc1noc([C@H]2C[C@H]3OCC[C@H]3N(Cc3scnc3C)C2)n1"
meas_value = -7.11

[[record]]
compound = "N#Cc1ccnc(N2CCC(NCCN3CCOCC3)CC2)c1"
meas_value = -2.14

[[record]]
compound = "CO[C@H]1CN(C(=O)c2cn3cc(C)ccc3n2)CC[C@@]12CCCO2"
meas_value = -17.2

